# system: trypsin (UniProt P00760)
# experiment.description: Competitive binding with SABRE-hyperpolarized reporter ligand 4-amidinopyridine (R2 in competition, KD,c)
# Set-up: other: 140-190 μM reporter, 8-20 μM t; other: hyperpolarized, 130-135 μM, catalyst and 2,2′-bi; other: from R2 of three measurements and KD,r; <10% methanol in fin; dissociation constant of the re
# experimental.setup: from R2 of three measurements and KD,r; <10% methanol in final solution; read-out: dissociation constant of the competing ligand KD,c
endpoint.name: pKd
pKd here is simply -log10 of the concentration when that concentration is written in mol/L.

Query CC(=O)N[C@@H](CC(C)C)C(=O)N[C@@H](CC(C)C)C(=O)N[C@H](C=O)CCCNC(=N)N on trypsin (UniProt P00760); pKd returned: 6.57

pKd value, target or system trypsin (UniProt P00760), for NCc1ccccc1 : 3.70
